In what follows, each item is paired with its GI50 for 786-0.
Give just the number in µM; leave the unit off.

Exam item: Field: GI50 (786-0). Entry: COc1cc(-c2cc(-c3nc4ccccc4[nH]3)[nH]n2)cc(OC)c1OC
Marked response: 3.66

Exam item: Field: GI50 (786-0). Entry: Fc1ccc2[nH]c(-c3cc(-c4ccc5c(c4)OCO5)n[nH]3)nc2c1
Marked response: 7.13

Exam item: Field: GI50 (786-0). Entry: COc1cc(-c2cc(-c3nc4cc(Cl)c(Cl)cc4[nH]3)[nH]n2)cc(OC)c1OC [10f]
Marked response: 4.09

Exam item: Field: GI50 (786-0). Entry: c1ccc2[nH]c(-c3cc(-c4ccc5c(c4)OCO5)n[nH]3)nc2c1
Marked response: 4.58

Exam item: Field: GI50 (786-0). Entry: COc1cc(-c2cc(-c3nc4cc(Cl)ccc4[nH]3)[nH]n2)cc(OC)c1OC
Marked response: 5.32

Exam item: Field: GI50 (786-0). Entry: COc1ccc2[nH]c(-c3cc(-c4cc(OC)c(OC)c(OC)c4)n[nH]3)nc2c1
Marked response: 2.92

* * *

Tested on: HCC-2998
Criterion: GI50 strictly under 4 µM. Met: met. Not met: not met.

Exam item: Dear reviewer, please state whether COc1cc(-c2cc(-c3nc4ccccc4[nH]3)[nH]n2)cc(OC)c1OC has GI50 strictly beneath 4 µM.
Marked response: not met

Exam item: Dear reviewer, please state whether COc1ccc2[nH]c(-c3cc(-c4cc(OC)c(OC)c(OC)c4)n[nH]3)nc2c1 has GI50 strictly beneath 4 µM.
Marked response: met

Exam item: Dear reviewer, please state whether COc1cc(-c2cc(-c3nc4cc(Cl)c(Cl)cc4[nH]3)[nH]n2)cc(OC)c1OC [10f] has GI50 strictly beneath 4 µM.
Marked response: not met

Exam item: Dear reviewer, please state whether c1ccc2[nH]c(-c3cc(-c4ccc5c(c4)OCO5)n[nH]3)nc2c1 has GI50 strictly beneath 4 µM.
Marked response: met

Exam item: Dear reviewer, please state whether Fc1ccc2[nH]c(-c3cc(-c4ccc5c(c4)OCO5)n[nH]3)nc2c1 has GI50 strictly beneath 4 µM.
Marked response: not met

Exam item: Dear reviewer, please state whether COc1cc(-c2cc(-c3nc4cc(Cl)ccc4[nH]3)[nH]n2)cc(OC)c1OC has GI50 strictly beneath 4 µM.
Marked response: not met

* * *

System: U251
Criterion: GI50 strictly under 3 µM. Met: true. Not met: false.

Exam item: Dear reviewer, please state whether COc1cc(-c2cc(-c3nc4cc(Cl)ccc4[nH]3)[nH]n2)cc(OC)c1OC has GI50 strictly beneath 3 µM.
Marked response: false

Exam item: Dear reviewer, please state whether COc1cc(-c2cc(-c3nc4ccccc4[nH]3)[nH]n2)cc(OC)c1OC has GI50 strictly beneath 3 µM.
Marked response: false

Exam item: Dear reviewer, please state whether c1ccc2[nH]c(-c3cc(-c4ccc5c(c4)OCO5)n[nH]3)nc2c1 has GI50 strictly beneath 3 µM.
Marked response: true

Exam item: Dear reviewer, please state whether Fc1ccc2[nH]c(-c3cc(-c4ccc5c(c4)OCO5)n[nH]3)nc2c1 has GI50 strictly beneath 3 µM.
Marked response: true

Exam item: Dear reviewer, please state whether COc1ccc2[nH]c(-c3cc(-c4cc(OC)c(OC)c(OC)c4)n[nH]3)nc2c1 has GI50 strictly beneath 3 µM.
Marked response: true
